molecular target: Epidermal growth factor receptor (Homo sapiens, UniProt P00533, L858R/T790M); test: Inhibition of recombinant EGFR T790M/L858R mutant (unknown origin) using poly (Glu,Tyr) 4:1 as substrate after 60 mins by ELISA
Sequence (P00533 25-1210 T790M/L858R limits assumed): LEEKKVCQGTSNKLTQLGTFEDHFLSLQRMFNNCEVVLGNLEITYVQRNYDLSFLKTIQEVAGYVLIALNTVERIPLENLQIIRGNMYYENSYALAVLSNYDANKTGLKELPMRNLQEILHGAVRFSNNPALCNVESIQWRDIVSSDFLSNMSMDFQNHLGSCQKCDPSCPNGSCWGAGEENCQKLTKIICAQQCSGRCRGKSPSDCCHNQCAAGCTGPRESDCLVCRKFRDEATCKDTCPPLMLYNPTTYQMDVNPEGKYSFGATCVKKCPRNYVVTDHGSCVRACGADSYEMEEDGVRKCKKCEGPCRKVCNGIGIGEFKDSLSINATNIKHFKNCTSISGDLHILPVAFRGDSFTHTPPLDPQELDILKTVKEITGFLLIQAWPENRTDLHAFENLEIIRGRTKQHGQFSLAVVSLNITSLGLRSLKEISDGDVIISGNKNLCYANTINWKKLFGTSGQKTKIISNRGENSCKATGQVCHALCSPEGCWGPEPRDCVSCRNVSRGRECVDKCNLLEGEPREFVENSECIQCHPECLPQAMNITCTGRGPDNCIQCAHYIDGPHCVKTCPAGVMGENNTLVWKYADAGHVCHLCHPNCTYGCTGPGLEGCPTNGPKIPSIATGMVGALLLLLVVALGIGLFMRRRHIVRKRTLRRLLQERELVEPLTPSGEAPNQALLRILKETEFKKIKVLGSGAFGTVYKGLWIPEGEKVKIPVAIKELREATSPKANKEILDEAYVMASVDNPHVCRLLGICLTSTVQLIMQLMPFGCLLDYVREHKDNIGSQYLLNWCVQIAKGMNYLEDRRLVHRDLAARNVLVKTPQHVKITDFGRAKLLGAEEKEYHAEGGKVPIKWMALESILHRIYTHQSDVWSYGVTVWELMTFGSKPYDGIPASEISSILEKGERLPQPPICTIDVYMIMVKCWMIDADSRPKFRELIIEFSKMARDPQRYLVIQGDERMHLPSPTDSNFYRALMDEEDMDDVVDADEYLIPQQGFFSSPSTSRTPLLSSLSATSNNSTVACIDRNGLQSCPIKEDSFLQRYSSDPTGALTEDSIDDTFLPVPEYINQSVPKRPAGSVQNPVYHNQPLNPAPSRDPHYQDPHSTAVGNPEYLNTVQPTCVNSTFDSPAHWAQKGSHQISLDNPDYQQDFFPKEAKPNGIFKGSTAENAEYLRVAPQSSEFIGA
Quick reference for IC50 among some molecules
value_type: IC50

> print(dat)
                                item.smiles                             target.system  value.type  result
1  OC[C@H](Nc1cnc(-c2cc(Cl)ccc2O)c(-c2ccc3cnccc3c2)c1)c1ccccc1  Epidermal growth factor receptor (Homo sapiens, UniProt P00533, L858R/T790M)        IC50  1.9 nM
2  Cc1n[nH]c2ccc(-c3cc(N[C@@H](CO)c4ccccc4)cnc3-c3cc(Cl)ccc3O)cc12  Epidermal growth factor receptor (Homo sapiens, UniProt P00533, L858R/T790M)        IC50  8.6 nM
3  Cc1n[nH]c2ccc(-c3cc(N[C@@H](CO)c4ccccc4)cnc3-c3ccc(F)cc3O)cc12  Epidermal growth factor receptor (Homo sapiens, UniProt P00533, L858R/T790M)        IC50  1.3 nM
4  Cc1n[nH]c2ccc(-c3cc(N[C@@H](CO)c4ccccc4)cnc3-c3cc(F)ccc3O)cc12  Epidermal growth factor receptor (Homo sapiens, UniProt P00533, L858R/T790M)        IC50    6 nM

###

assay: AUC (0 to infinity) in Sprague-Dawley rat at 20 mg/kg, po by LC-MS/MS method; type: ADME, organism-based; set-up: dose 20 mg/kg, route oral, time infinity; conditions: in vivo
value_type: AUC(0-inf) (ng·h/mL)

> print(dat)
                                item.smiles  value.type  measured.number
1  Cc1n[nH]c2ccc(-c3cc(N[C@@H](CO)c4ccccc4)cnc3-c3cc(F)ccc3O)cc12  AUC(0-inf)            18700

###

target: Proto-oncogene tyrosine-protein kinase ROS (Homo sapiens); experiment: Inhibition of recombinant ROS1 (unknown origin) using poly (Glu,Tyr) 4:1 as substrate after 60 mins by ELISA
pIC50: −log10 of the molar value.
value_type: pIC50

> print(dat)
                                item.smiles  bound.sign  measured.number
1  OC[C@H](Nc1cnc(-c2cc(Cl)ccc2O)c(-c2ccc3cnccc3c2)c1)c1ccccc1           =             6.77
2  Cc1n[nH]c2ccc(-c3cc(N[C@@H](CO)c4ccccc4)cnc3-c3ccc(F)cc3O)cc12           <             6.00
3  Cc1n[nH]c2ccc(-c3cc(N[C@@H](CO)c4ccccc4)cnc3-c3cc(F)ccc3O)cc12           <             6.00
4  Cc1n[nH]c2ccc(-c3cc(N[C@@H](CO)c4ccccc4)cnc3-c3cc(Cl)ccc3O)cc12           =             6.56

###

biological target: Tyrosine-protein kinase Mer (Homo sapiens, UniProt Q12866); assay: Inhibition of recombinant Mer (unknown origin) using poly (Glu,Tyr) 4:1 as substrate after 60 mins by ELISA
Sequence (Q12866 whole entry): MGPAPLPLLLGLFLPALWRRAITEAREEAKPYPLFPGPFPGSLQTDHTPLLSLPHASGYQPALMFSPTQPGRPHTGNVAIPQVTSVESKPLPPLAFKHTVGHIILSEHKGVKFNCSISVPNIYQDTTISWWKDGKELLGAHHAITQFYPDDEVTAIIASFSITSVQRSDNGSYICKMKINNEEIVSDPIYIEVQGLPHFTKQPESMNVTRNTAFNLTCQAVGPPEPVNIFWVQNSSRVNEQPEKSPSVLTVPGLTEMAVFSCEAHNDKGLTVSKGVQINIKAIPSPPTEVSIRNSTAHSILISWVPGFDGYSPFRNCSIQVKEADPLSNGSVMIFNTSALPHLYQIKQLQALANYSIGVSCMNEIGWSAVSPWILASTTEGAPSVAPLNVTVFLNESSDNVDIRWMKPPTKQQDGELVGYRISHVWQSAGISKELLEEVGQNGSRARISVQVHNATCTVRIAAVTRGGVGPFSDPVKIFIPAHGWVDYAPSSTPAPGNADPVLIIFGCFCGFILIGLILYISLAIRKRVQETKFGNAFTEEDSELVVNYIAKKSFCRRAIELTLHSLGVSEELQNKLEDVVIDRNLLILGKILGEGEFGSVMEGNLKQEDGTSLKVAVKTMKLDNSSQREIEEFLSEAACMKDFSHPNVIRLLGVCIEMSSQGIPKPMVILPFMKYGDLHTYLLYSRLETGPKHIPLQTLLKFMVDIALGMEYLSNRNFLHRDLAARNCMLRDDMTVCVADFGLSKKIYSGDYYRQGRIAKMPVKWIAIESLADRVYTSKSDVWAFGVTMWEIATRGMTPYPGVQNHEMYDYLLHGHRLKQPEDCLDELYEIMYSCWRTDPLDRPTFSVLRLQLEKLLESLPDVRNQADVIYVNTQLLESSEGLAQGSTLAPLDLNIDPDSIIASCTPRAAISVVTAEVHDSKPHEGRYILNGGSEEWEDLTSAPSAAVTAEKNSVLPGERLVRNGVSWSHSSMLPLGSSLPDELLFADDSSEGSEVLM
pIC50: −log10 of the molar value.
value_type: pIC50

> print(dat)
                                item.smiles                             target.system  measured.number
1  Cc1n[nH]c2ccc(-c3cc(N[C@@H](CO)c4ccccc4)cnc3-c3ccc(F)cc3O)cc12  Tyrosine-protein kinase Mer (Homo sapiens, UniProt Q12866)             8.15
2  Cc1n[nH]c2ccc(-c3cc(N[C@@H](CO)c4ccccc4)cnc3-c3cc(Cl)ccc3O)cc12  Tyrosine-protein kinase Mer (Homo sapiens, UniProt Q12866)             7.51
3  OC[C@H](Nc1cnc(-c2cc(Cl)ccc2O)c(-c2ccc3cnccc3c2)c1)c1ccccc1  Tyrosine-protein kinase Mer (Homo sapiens, UniProt Q12866)             8.36
4  Cc1n[nH]c2ccc(-c3cc(N[C@@H](CO)c4ccccc4)cnc3-c3cc(F)ccc3O)cc12  Tyrosine-protein kinase Mer (Homo sapiens, UniProt Q12866)             7.43

###

Quick reference for IC50 among some molecules
target: Fibroblast growth factor receptor 1 (Homo sapiens, UniProt P11362); assay: Inhibition of recombinant human FGFR1 using poly (Glu,Tyr) 4:1 as substrate after 60 mins by ELISA
Sequence (P11362 whole entry): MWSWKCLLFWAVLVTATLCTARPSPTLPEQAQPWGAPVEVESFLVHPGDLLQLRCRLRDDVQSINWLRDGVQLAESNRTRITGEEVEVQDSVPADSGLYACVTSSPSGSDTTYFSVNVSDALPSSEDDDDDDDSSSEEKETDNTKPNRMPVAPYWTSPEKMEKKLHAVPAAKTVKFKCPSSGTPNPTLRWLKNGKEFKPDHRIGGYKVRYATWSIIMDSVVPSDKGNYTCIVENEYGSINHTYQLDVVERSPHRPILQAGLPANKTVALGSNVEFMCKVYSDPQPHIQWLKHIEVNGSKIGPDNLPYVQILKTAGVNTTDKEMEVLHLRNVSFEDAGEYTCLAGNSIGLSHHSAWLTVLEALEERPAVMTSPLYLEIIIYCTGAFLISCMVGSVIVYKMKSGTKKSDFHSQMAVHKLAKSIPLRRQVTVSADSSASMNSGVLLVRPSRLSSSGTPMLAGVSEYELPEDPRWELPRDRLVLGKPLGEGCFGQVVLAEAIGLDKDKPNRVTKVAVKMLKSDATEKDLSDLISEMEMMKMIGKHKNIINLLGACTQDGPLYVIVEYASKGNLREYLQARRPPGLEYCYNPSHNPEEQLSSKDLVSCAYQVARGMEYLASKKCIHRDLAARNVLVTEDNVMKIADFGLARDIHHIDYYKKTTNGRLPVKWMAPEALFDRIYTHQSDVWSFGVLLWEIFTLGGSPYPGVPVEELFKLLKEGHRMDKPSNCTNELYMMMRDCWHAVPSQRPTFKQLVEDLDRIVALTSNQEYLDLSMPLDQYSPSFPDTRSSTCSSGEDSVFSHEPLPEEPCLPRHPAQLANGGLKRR
value_type: IC50 (µM)

> print(dat)
                                item.smiles  value.type  bound.sign  measured.number
1  Cc1n[nH]c2ccc(-c3cc(N[C@@H](CO)c4ccccc4)cnc3-c3cccc4cccnc34)cc12        IC50           >                1
2  Cc1n[nH]c2ccc(-c3cc(N[C@@H](CO)c4ccccc4)cnc3-c3ccc(F)cc3O)cc12        IC50           =           0.0252
3  CC(=O)Nc1ccccc1-c1ncc(N[C@@H](CO)c2ccccc2)cc1-c1ccc2[nH]nc(C)c2c1        IC50           =            0.418
4  Cc1n[nH]c2ccc(-c3cc(N[C@@H](CO)c4ccccc4)cnc3-c3ccsc3)cc12        IC50           =            0.327
5  Cc1n[nH]c2ccc(-c3cc(N[C@@H](CO)c4ccccc4)cnc3-c3cc(F)c(F)cc3O)cc12        IC50           =           0.0106

###

target: Fibroblast growth factor receptor 3 (Homo sapiens, UniProt P22607); experiment: Inhibition of recombinant human FGFR3 using poly (Glu,Tyr) 4:1 as substrate after 60 mins by ELISA
Sequence (P22607 whole entry): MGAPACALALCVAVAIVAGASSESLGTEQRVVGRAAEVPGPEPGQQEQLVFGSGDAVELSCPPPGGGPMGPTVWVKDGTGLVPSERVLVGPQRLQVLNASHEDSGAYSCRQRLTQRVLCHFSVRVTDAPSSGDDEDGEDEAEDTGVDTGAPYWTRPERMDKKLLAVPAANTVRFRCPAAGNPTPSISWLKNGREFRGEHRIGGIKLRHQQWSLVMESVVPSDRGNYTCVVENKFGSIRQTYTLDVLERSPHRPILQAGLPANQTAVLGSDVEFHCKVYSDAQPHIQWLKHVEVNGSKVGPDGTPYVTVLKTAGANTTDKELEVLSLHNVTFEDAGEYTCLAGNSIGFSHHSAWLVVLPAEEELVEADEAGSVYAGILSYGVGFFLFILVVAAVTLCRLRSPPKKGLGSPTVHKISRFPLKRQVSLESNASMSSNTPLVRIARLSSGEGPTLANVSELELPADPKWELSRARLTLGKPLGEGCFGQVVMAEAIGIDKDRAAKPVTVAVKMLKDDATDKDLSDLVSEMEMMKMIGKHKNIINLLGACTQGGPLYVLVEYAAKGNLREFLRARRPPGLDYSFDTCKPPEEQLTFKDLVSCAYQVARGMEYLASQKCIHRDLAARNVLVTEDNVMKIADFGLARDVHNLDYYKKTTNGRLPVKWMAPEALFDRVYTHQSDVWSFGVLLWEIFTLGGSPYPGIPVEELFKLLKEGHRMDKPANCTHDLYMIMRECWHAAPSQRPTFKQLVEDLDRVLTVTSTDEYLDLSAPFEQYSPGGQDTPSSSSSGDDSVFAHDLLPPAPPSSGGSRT
pIC50: −log10 of the molar value.
value_type: pIC50

> print(dat)
                                item.smiles                             target.system  bound.sign  measured.number
1  Cc1n[nH]c2ccc(-c3cc(N[C@@H](CO)c4ccccc4)cnc3-c3cc(Cl)ccc3O)cc12  Fibroblast growth factor receptor 3 (Homo sapiens, UniProt P22607)           =             7.14
2  Cc1n[nH]c2ccc(-c3cc(NCCCO)cnc3-c3cc(F)ccc3O)cc12  Fibroblast growth factor receptor 3 (Homo sapiens, UniProt P22607)           <             6.00
3  Cc1n[nH]c2ccc(-c3cc(N[C@@H](CO)c4ccccc4)cnc3-c3cccc(O)c3)cc12  Fibroblast growth factor receptor 3 (Homo sapiens, UniProt P22607)           =             6.36
4  O=C1Cc2cc(-c3cc(N[C@@H](CO)c4ccccc4)cnc3-c3cc(Cl)ccc3O)ccc2N1  Fibroblast growth factor receptor 3 (Homo sapiens, UniProt P22607)           =             6.23
5  Cc1n[nH]c2ccc(-c3cc(N[C@@H](CO)c4ccccc4)cnc3-c3ccccc3CO)cc12  Fibroblast growth factor receptor 3 (Homo sapiens, UniProt P22607)           =             6.60
6  Cc1n[nH]c2ccc(-c3cc(N[C@@H](CO)c4ccccc4)cnc3-c3ccsc3)cc12  Fibroblast growth factor receptor 3 (Homo sapiens, UniProt P22607)           =             6.01
7  Cc1n[nH]c2ccc(-c3cc(N[C@@H](CO)c4ccccc4)cnc3-c3cc(F)c(F)cc3O)cc12  Fibroblast growth factor receptor 3 (Homo sapiens, UniProt P22607)           =             7.56
8  Cc1n[nH]c2ncc(-c3cc(N[C@@H](CO)c4ccccc4)cnc3-c3cc(Cl)ccc3O)cc12  Fibroblast growth factor receptor 3 (Homo sapiens, UniProt P22607)           =             7.03
9  Cc1n[nH]c2ccc(-c3cc(N[C@@H](CO)c4ccccc4)cnc3-c3cccc(F)c3O)cc12  Fibroblast growth factor receptor 3 (Homo sapiens, UniProt P22607)           =             7.45

###

experiment: MRT in Sprague-Dawley rat at 20 mg/kg, po by LC-MS/MS method; type: ADME, organism-based; settings: in vivo
value_type: MRT (h)

> print(dat)
                                item.smiles  measured.number
1  Cc1n[nH]c2ccc(-c3cc(N[C@@H](CO)c4ccccc4)cnc3-c3cc(F)ccc3O)cc12             6.72

###

target: Fibroblast growth factor receptor 3 (Homo sapiens); experiment: Inhibition of recombinant human FGFR3 using poly (Glu,Tyr) 4:1 as substrate after 60 mins by ELISA
Quick reference for IC50 among some compounds
value_type: IC50 (µM)

> print(dat)
                                item.smiles  value.type  bound.sign  measured.number
1  Cc1n[nH]c2ccc(-c3cc(N[C@@H](CO)c4ccccc4)cnc3-c3cccnc3)cc12        IC50           >                1
2  Cc1n[nH]c2ccc(-c3cc(N[C@@H](CO)c4ccccc4)cnc3-c3ccccc3)cc12        IC50           =             0.28
3  Cc1n[nH]c2ccc(-c3cc(N[C@@H](CO)c4ccccc4)cnc3-c3ccc(F)cc3O)cc12        IC50           =           0.0159
4  Cc1n[nH]c2ccc(-c3cc(N[C@H](CO)c4ccccc4)cnc3-c3cc(Cl)ccc3O)cc12        IC50           >                1
5  Cc1n[nH]c2ccc(-c3cc(N[C@@H](CO)c4ccccc4)cnc3-c3cc(C(C)C)ccc3O)cc12        IC50           >                1

Entry source: ChEMBL document CHEMBL4017490
